# Test system: SF-295 CNS
# assay info: NCI-60 one-dose screen, 48 h (100 = growth as untreated, 0 = no growth, -100 = all killed)
# applied conditions: 10 µM unless noted
This is part of a sample that, as a whole, favours compounds with a hit. Of some 83,000 tested, about 20% had one in any assay.
Exercise: for every item that follows, state its recorded growth.
The figure you give is taken to be in %; do not add the unit.

In: Given the compound "Cn1ccc(Nc2nccc(Oc3ccc(C(=O)Nc4cccc(F)c4)c(Cl)c3)n2)c1" , what is its reported growth?
Out: 61.8

In: Requested field: growth. Item: "COc1ccc(-c2nc3sccn3c2/C=C/C(=O)c2cc(F)cc(F)c2)cc1"
Out: 116

In: For the compound "COc1cc(Cn2cc3c(c2)-c2oncc2CC3)cc(OC)c1OC" , what growth is on record?
Out: -3.52

In: Which growth is listed for "COc1ccc(S(=O)(=O)n2ccc(-c3ccc4c(c3)CCC(C)(C)O4)n2)cc1OC" ?
Out: 63

In: Fill in the blank: the reported growth of CCC(C)/C(=C\C#N)NCCCN/C(=C/C#N)C(C)CC (stereo not given) is ____.
Out: 105

In: So what does the record say about growth for "COc1cc2c(=O)n(C3CCCCCC3)c3c4cc[nH]c4ncc3c2cc1OC" ?
Out: 69.7

In: Name the reported growth value associated with the compound "O=C(CCl)N(C1CCCCC1)C1CCCCC1"
Out: 98.3

In: Need growth, item "Cc1ccc(S(=O)(=O)NCCNc2nccc(-c3c(-c4cccc(N)c4)nc4sccn34)n2)cc1"
Out: 95.6

In: Please look up its growth: "COc1ccc(-c2c(N)n[nH]c2-c2cc(OC)c(OC)c(OC)c2)cc1"
Out: 12.8

In: # input compound: CCN(CC)CCC(CNc1c2ccc(Cl)cc2nc2ccc(OC)cc12)c1ccccc1 (stereo not given) ; wanted: its growth
Out: -33.2

In: I would be grateful if you could share the reported growth for "Cc1ccc(S(=O)(=O)c2nc(-c3ccccc3)oc2S(C)(=O)=O)cc1" .
Out: 89.4

In: Fill in: growth of "CC(C)OC(=O)N1CCOCC1" is ___
Out: 113

In: growth lookup needed for "Clc1ccccc1-c1nc2ccccc2[nH]1" , thanks.
Out: 96

In: Fill blank: measured growth of the compound "C=C(C)[C@@H]1CC[C@]2(C(=O)N3CCNCC3)CC[C@]3(C)[C@H](CC[C@@H]4[C@@]5(C)C/C(=C/c6ccncc6)C(=O)C(C)(C)[C@@H]5CC[C@]43C)[C@@H]12" is ____.
Out: 104

In: Recorded growth of "Cc1ccc(S(=O)(=O)n2cc(C(=O)C(=O)N3CCOCC3)c3ccccc32)cc1" , please.
Out: 94.1

Each recorded value in this set is attributed to PubChem BioAssay (NCI).
